Biological target: T1, human ROR1 on cells (HEK293T-hROR1, PANC-1, A549) (human, UniProt Q01973 30-937)
T1 construct: whole, on cells; one molecule for the three cell lines; also called huROR1; cell surface ROR1
T1 sequence (Q01973 30-937): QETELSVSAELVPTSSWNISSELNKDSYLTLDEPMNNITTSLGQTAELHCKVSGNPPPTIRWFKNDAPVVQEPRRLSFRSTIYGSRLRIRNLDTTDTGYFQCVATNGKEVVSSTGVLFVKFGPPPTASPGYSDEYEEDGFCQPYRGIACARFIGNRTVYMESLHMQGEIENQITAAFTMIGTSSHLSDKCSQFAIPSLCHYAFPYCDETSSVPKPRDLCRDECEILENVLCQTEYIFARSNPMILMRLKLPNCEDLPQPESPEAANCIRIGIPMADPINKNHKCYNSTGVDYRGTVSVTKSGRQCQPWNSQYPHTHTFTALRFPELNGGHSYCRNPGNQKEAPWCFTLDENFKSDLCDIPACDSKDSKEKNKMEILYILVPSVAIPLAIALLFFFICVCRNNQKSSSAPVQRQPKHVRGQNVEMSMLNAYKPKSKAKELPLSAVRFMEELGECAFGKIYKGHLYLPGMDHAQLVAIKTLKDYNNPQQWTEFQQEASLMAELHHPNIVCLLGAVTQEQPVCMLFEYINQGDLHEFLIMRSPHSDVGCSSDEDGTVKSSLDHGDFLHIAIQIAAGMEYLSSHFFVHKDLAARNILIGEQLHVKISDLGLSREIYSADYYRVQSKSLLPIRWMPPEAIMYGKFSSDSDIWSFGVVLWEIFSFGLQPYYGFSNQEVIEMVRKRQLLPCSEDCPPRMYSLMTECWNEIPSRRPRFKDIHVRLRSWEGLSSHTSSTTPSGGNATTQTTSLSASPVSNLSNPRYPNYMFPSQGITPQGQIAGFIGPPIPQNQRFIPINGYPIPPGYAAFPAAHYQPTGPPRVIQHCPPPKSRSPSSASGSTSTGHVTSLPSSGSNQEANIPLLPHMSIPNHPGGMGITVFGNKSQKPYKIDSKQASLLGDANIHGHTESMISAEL
Assay: flow cytometry, A549 cells
Protocol: In brief, anti-ROR1 antibodies were serially diluted in staining buffer (PBS containing 2% FBS). Antibody solution was incubated with 1×10⁵ cells at 4° C. for 1 hour. […] After 1-hour incubation at 4° C., cells were washed twice with staining buffer and subjected to flow cytometry. PR000374 (Bench marker 1) and non-relevant IgG isotype control (Crownbio) were used as positive and negative controls, respectively.
Measured EC50, listed per entry for reference.
Remember to put the unit after the number in your answer.

Examples with their reported EC50 follow.
Return EC50 (reported value) for this binder: PR303155 (antibody, human IgG1, V domains shown, HCAb (heavy chain-only, human IgG1 Fc), no light chain) VH: EVQLVESGGGLVKPGGSLRLSCAASGFTLSDYYMSWIRQAPGKGLEWISYISSNGSTIYYADSVKGRFTISRDNARNSLYLQMNSLRAEDTALYYCARDVSSGWYEDFDYWGQGTLVTVSS 1.32 µg/mL

Return EC50 (reported value) for this binder: PR303201 (antibody, human IgG1, V domains shown, HCAb (heavy chain-only, human IgG1 Fc), no light chain) VH: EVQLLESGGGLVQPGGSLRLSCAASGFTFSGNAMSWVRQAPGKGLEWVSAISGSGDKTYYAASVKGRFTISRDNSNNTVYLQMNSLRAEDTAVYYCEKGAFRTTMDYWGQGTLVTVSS 0.08 µg/mL

Return EC50 (reported value) for this binder: PR000374 (antibody, human IgG1, kappa, V domains shown, positive control; also called Bench marker 1) VH: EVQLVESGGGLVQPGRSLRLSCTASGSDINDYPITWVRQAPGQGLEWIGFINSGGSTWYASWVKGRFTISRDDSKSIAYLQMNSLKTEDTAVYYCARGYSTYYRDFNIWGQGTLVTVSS VL: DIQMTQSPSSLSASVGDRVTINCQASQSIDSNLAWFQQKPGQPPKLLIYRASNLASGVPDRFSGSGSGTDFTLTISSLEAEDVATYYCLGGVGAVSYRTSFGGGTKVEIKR 0.61 µg/mL

// below: EC50 requested for another binder
Return EC50 (reported value) for this binder: PR303199 (antibody, human IgG1, V domains shown, HCAb (heavy chain-only, human IgG1 Fc), no light chain) VH: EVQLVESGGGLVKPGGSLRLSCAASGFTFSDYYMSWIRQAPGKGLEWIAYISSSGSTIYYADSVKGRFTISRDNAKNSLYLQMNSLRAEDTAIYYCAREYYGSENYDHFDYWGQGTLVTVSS 6.79 µg/mL
